# Measurement description: NCI Yeast Anticancer Drug Screen. Data for the rad52 strain (AID 147);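 further: 0% = growth of vehicle-treated control cultures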
# Reported conditions: S. cerevisiae rad52 mutant growth inhibition; at 11.0 µM; hits give high values
Compounds without any hit were thinned out: in the full panel of roughly 79,000, 15% have a hit.
Quantity measured: growth inhibition (%)

> print(dat)
                                    molecule  assay.value
 1  O=C(NCCCCCCCN1CCCCCCC1)C(C1CCCCC1)C1CCCCC1           89
 2  C=CC(C)(O)CCC1C(=C)C(O)CC2C(C)(C)CCCC12C (stereo not given)           27
 3  Nc1nc(-c2cccnc2)cc(-c2cc(-c3cccnc3)nc(N)n2)n1           -3
 4         N#Cc1c(N)[nH]c2ccc(Sc3ccccc3)cc12           14
 5  COc1ccc(C2c3cc4c(cc3OC(C)(O)C2C)OCO4)c(OC)c1 (stereo not given)            3
 6  C(=C\c1ccccc1)/COc1ccccc1C(N1CCOCC1)n1nc2ccccc2n1 (stereo not given)           13
 7  CCCCCCCCNC(=O)C1=C(C)NC(C)=C(C(=O)NCCCCCCCC)C1            3
 8  C(CCSC1=NCCN1)CSC1=NCCN1 (tested in a mixture with another compound)           79
 9                CCCCN(CCCC)CCSc1ccc(Cl)cc1          -10
10  Cc1cc2c(cc1C(=O)CCC(=O)O)CC1(C2)Cc2cc(C)c(C(=O)CCC(=O)O)cc2C1           11
